Conditions: in methanol, 293.15 K
Recorded Metric: solubility (mole fraction)
Number only, no unit.

Query string: Request the reported solubility (mole fraction) associated with "CC(=O)[C@H]1CC[C@H]2[C@@H]3CCC4=CC(=O)CC[C@]4(C)[C@H]3CC[C@]12C"
Result string: 0.00676

* * *

Details: in isopropanol, 308.15 K
Recorded Metric: solubility (mole fraction)
Number only, no unit.

Query string: Request the reported solubility (mole fraction) associated with "CC(=O)[C@H]1CC[C@H]2[C@@H]3CCC4=CC(=O)CC[C@]4(C)[C@H]3CC[C@]12C"
Result string: 0.0203

* * *

Conditions: in 1,4-dioxane, 318.15 K
Recorded Metric: solubility (mole fraction)

Query string: Request the reported solubility (mole fraction) associated with "CC(=O)[C@H]1CC[C@H]2[C@@H]3CCC4=CC(=O)CC[C@]4(C)[C@H]3CC[C@]12C"
Result string: 0.156

* * *

Settings: in n-heptane, 303.15 K
Recorded Metric: solubility (mole fraction)
Number only, no unit.

Query string: Request the reported solubility (mole fraction) associated with "CC(=O)[C@H]1CC[C@H]2[C@@H]3CCC4=CC(=O)CC[C@]4(C)[C@H]3CC[C@]12C"
Result string: 0.000914

* * *

Conditions: in n-heptane, 313.15 K
Recorded Metric: solubility (mole fraction)
Number only, no unit.

Query string: Request the reported solubility (mole fraction) associated with "CC(=O)[C@H]1CC[C@H]2[C@@H]3CCC4=CC(=O)CC[C@]4(C)[C@H]3CC[C@]12C"
Result string: 0.00198

* * *

Conditions: in n-heptane, 288.15 K
Recorded Metric: solubility (mole fraction)
Number only, no unit.

Query string: Request the reported solubility (mole fraction) associated with "CC(=O)[C@H]1CC[C@H]2[C@@H]3CCC4=CC(=O)CC[C@]4(C)[C@H]3CC[C@]12C"
Result string: 0.000281

* * *

Conditions: in isopropanol, 288.15 K
Recorded Metric: solubility (mole fraction)
Number only, no unit.

Query string: Request the reported solubility (mole fraction) associated with "CC(=O)[C@H]1CC[C@H]2[C@@H]3CCC4=CC(=O)CC[C@]4(C)[C@H]3CC[C@]12C"
Result string: 0.00615

* * *

Details: in ethyl acetate, 283.15 K
Recorded Metric: solubility (mole fraction)
Number only, no unit.

Query string: Request the reported solubility (mole fraction) associated with "CC(=O)[C@H]1CC[C@H]2[C@@H]3CCC4=CC(=O)CC[C@]4(C)[C@H]3CC[C@]12C"
Result string: 0.0175

* * *

Conditions: in methanol, 278.15 K
Recorded Metric: solubility (mole fraction)
Number only, no unit.

Query string: Request the reported solubility (mole fraction) associated with "CC(=O)[C@H]1CC[C@H]2[C@@H]3CCC4=CC(=O)CC[C@]4(C)[C@H]3CC[C@]12C"
Result string: 0.00232

* * *

Conditions: in n-butanol, 313.15 K
Recorded Metric: solubility (mole fraction)

Query string: Request the reported solubility (mole fraction) associated with "CC(=O)[C@H]1CC[C@H]2[C@@H]3CCC4=CC(=O)CC[C@]4(C)[C@H]3CC[C@]12C"
Result string: 0.0439

* * *

Details: in THF, 318.15 K
Recorded Metric: solubility (mole fraction)
Number only, no unit.

Query string: Request the reported solubility (mole fraction) associated with "CC(=O)[C@H]1CC[C@H]2[C@@H]3CCC4=CC(=O)CC[C@]4(C)[C@H]3CC[C@]12C"
Result string: 0.185

Where do the numbers come from? From BigSolDB 2.1.
